Molecular target: T1, Human ACVR2A (human, UniProt P27037 20-135, limits assumed); also: test concentration or dose not given here
T1 construct: also called activin receptor, type II A
T1 sequence (P27037 20-135 limits assumed): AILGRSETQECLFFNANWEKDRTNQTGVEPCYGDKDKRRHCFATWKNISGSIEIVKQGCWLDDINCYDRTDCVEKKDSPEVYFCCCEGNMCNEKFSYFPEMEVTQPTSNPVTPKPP
Test: ELISA
Assay Endpoint: optical density (OD)
Enter your answer as a number in OD; do not include the unit.

1. 367_G06 (antibody, V domains shown) VH: EVQLLESGGGLVQPGGSLRLSCAASGFTFSSYGMNWVRQAPGKGLEWVSGINYNSGYKSYADSVKGRFTISRDNSKNTLYLQMNSLRAEDTAVYYCARSANWHDTHLDYWGQGTLVTVSS VL: DIQMTQSPSSLSASVGDRVTITCRASQSILTYVNWYQQKPGKAPKLLIYATTSLHSGVPSRFSGSGSGTDFTLTISSLQPEDFATYYCQQSYDTPLTFGGGTKVEIK    2.64

Continue with the binder presented below.
Please give the documented optical density of 374_D01 (antibody, V domains shown) VH: EVQLLESGGGLVQPGGSLRLSCAASGFTFDSYSMNWVRQAPGKGLEWVSGINYNSGYKGYADSVKGRFTISRDNSKNTLYLQMNSLRAEDTAVYYCARSANWHDTALDYWGQGTLVTVSS VL: DIQMTQSPSSLSASVGDRVTITCRASQSIITYVNWYQQKPGKAPKLLIYAATSLASGVPSRFSGSGSGTDFTLTISSLQPEDFATYYCQQSYSSPLTFGGGTKVEIK
3.24
